Entry source: patent US11718612B2

system: U937 cells; experiment: Human U937 cellular necroptosis assay; type: cell-based; settings: U-937; U937 cells stimulated with 25 ng/mL human TNFalpha and 25 μM z-VAD-FMK; 22 hr; Cell Titer-Glo viability
Measured IC50 of individual entries
Note: unit nM is implicit; provide only the numeric part.

Sample records with IC50:
Request: Please report the recorded IC50 for O=C1c2nn(Cc3ccccc3)c(C(F)F)c2CCN1c1cccc(Cl)c1F .
Response: 42

Request: Please report the recorded IC50 for Cc1ccc(Cn2cnc(C(=O)Nc3cccc(Cl)c3F)n2)cc1 .
Response: 2080

Request: Please report the recorded IC50 for O=C1c2nn(Cc3ncccc3Cl)c(Cl)c2CCN1c1cccc(Cl)c1F .
Response: 130

Request: Please report the recorded IC50 for O=C(Nc1cccc(Cl)c1F)c1nc2n(n1)[C@H](c1ccccc1)C[C@@H]2F .
Response: 24.8

Request: Please report the recorded IC50 for O=C1c2nn(Cc3ccccc3)c(Cl)c2CCN1c1cccc(Cl)c1F .
Response: 71.2

More entries:
Request: Please report the recorded IC50 for COCCOCc1cc(Cl)c(F)c(NC(=O)c2ncn(Cc3ccccc3)n2)c1 .
Response: 529

Request: Please report the recorded IC50 for N#Cc1cccc(Cn2cc3c(n2)C(=O)N(c2cccc(Cl)c2F)CC3)c1 .
Response: 811

Request: Please report the recorded IC50 for O=C1c2nn(Cc3cc(F)cc(F)c3)c(Cl)c2CCN1c1cccc(Cl)c1F .
Response: 189
